Sourced from patent US11261184B2

Listing: RLM [% QH] of selected compounds
- Procedure text: Metabolic (microsomal) stability assay, rat liver microsomes
- Type: in vitro ADME
- Measurement parameters: predicted clearance as percent of liver blood flow; rat liver microsomes 0.5 mg/mL, 1 μM compound, 37° C.

* CC(=O)N1CCN(c2ccc(Oc3ccnc4ccncc34)cc2)CC1 | 29 % QH
* CC(=O)N(C)[C@H]1CCN(c2ccc(Oc3ccnc4c(F)cncc34)cc2)C1 | <24 % QH
* CN(C)C(=O)[C@H]1CCN(c2ccc(Oc3ccnc4c(Cl)cncc34)cc2)C1 | 66 % QH
* CN(C)C(=O)C1CN(c2ccc(Oc3ccnc4c(F)cncc34)cc2)C1 | <24 % QH
* CN(CCO)C(=O)[C@H]1CCN(c2ccc(Oc3ccnc4c(F)cncc34)cc2)C1 | 24 % QH
* N[C@H]1CCN(c2ccc(Oc3ccnc4c(F)cncc34)cc2)C1 | <24 % QH
* Fc1cncc2c(Oc3ccc(N4CCn5ccnc5C4)cc3)ccnc12 | 57 % QH
* CN(C)C(=O)Cn1cc(-c2ccc(Oc3ccnc4c(F)cncc34)cc2)cn1 | <24 % QH

Need RLM [% QH], item CN(C)C(=O)[C@@H]1CCN(c2ccc(Oc3ccnc4c(F)cncc34)cc2)C1
41 % QH

Same read-out for c1cc2nccc(Oc3ccc(N4CCOCC4)cc3)c2cn1 ?
60 % QH

Same read-out for CC(=O)N[C@@H]1CCN(c2ccc(Oc3ccnc4c(F)cncc34)cc2)C1 ?
25 % QH

---

- Procedure text: Metabolic (microsomal) stability assay, rat liver microsomes
- Format: in vitro ADME
- Measurement parameters: predicted clearance as percent of liver blood flow; rat liver microsomes 0.5 mg/mL, 1 μM compound, 37° C.
Property: RLM [% QH] (% QH)
Give the value in % QH but do not write % QH after it.

Guide cases for RLM [% QH], answers given:
• CN(C)C(=O)Cn1cc(-c2ccc(Oc3ccnc4ccncc34)cc2)cn1 = 32
• CN1CCC(COc2ccc(Oc3ccnc4c(F)cncc34)cc2)C1=O (stereo not drawn) = 35
• O=C1CCCN1CCOc1ccc(Oc2ccnc3c(F)cncc23)cc1 = 47

Here's the next entry for you.
Need RLM [% QH], item CN(C)C(=O)[C@H]1CCN(c2ccc(Oc3ccnc4c(F)cncc34)cc2)C1
43

---

- Assay system: CDK8/cyclin C (Homo sapiens (Human))
- Sequence (P49336 whole entry): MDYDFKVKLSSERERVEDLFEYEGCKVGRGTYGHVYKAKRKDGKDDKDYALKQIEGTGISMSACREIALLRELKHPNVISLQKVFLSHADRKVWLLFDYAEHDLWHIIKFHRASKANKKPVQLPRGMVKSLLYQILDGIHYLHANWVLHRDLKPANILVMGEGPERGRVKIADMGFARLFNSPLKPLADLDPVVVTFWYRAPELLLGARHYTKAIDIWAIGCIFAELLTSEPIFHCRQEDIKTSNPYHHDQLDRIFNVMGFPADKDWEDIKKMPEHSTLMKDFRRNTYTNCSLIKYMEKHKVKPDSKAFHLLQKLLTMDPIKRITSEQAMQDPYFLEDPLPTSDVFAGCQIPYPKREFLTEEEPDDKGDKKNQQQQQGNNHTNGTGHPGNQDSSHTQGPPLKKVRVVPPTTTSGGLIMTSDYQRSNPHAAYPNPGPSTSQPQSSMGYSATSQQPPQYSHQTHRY
- Sequence (P24863 whole entry partner): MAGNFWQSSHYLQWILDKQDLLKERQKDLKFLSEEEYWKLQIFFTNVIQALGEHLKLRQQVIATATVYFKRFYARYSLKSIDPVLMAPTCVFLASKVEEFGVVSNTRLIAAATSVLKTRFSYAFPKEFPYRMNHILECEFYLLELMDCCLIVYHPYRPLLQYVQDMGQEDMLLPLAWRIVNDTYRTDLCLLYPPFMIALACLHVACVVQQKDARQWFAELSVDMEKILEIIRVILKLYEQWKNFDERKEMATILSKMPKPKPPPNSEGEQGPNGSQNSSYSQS
- Procedure text: CDK8 biochemical assay (TR-FRET Kinase Tracer 236 displacement)
- Measurement parameters: 5 nM CDK8/cyclin C, 10 nM Kinase Tracer 236, 60 min
Property: log10 of IC50 (log10 of the value in nM)
On a log10 scale: recorded IC50, unit nM.

Guide cases for log10 of IC50, answers given:
- CN(C)C(=O)[C@@H]1CCN(c2ccc(Oc3ccnc4c(F)cncc34)cc2)C1: 0.23
- CN(C)C(=O)[C@H]1CCN(c2ccc(Oc3ccnc4c(F)cncc34)cc2)C1: 0.18
- c1cc2nccc(Oc3ccc(N4CCOCC4)cc3)c2cn1: 1.15
- Cc1nccc2nccc(Oc3ccc(N4CCCC4)cc3)c12: 1.05
- CN(C)C(=O)Cn1cc(-c2ccc(Oc3ccnc4c(F)cncc34)cc2)cn1: 0.40
- CC(=O)N(C)CCOc1ccc(Oc2ccnc3c(F)cncc23)cc1: 0.82
- CN(C)C(=O)[C@H]1CCN(c2ccc(Oc3ccnc4c(Cl)cncc34)cc2)C1: 0.11
- CC(=O)N[C@H]1CCN(c2ccc(Oc3ccnc4c(F)cncc34)cc2)C1: 0.32
- CN(CCO)C(=O)[C@@H]1CCN(c2ccc(Oc3ccnc4c(F)cncc34)cc2)C1: 0.15
- O=C1CCCN1[C@H]1CCN(c2ccc(Oc3ccnc4c(F)cncc34)cc2)C1: 0.20

Need log10 of IC50, item CN1CCN(C(=O)[C@H]2CCN(c3ccc(Oc4ccnc5c(F)cncc45)cc3)C2)CC1
0.08

Same read-out for CC(=O)NC1CN(c2ccc(Oc3ccnc4c(F)cncc34)cc2)C1 ?
0.59

Same read-out for Fc1cncc2c(Oc3ccc(N4CCCC4)cc3)ccnc12 ?
0.53

Same read-out for CN(C)C(=O)[C@@H]1CCN(c2ccc(Oc3ccnc4c(Cl)cncc34)cc2)C1 ?
0.08

Same read-out for CN(C)C(=O)CCOc1ccc(Oc2ccnc3c(F)cncc23)cc1 ?
0.68

Same read-out for CC(=O)N[C@@H]1CCN(c2ccc(Oc3ccnc4c(F)cncc34)cc2)C1 ?
0.46

Same read-out for CN1CCC(COc2ccc(Oc3ccnc4c(F)cncc34)cc2)C1=O (stereo not shown) ?
0.57

Same read-out for Cc1cncc2c(Oc3ccc(N4CC[C@H](C(=O)N(C)C)C4)cc3)ccnc12 ?
0.23
